biological target: Glucagon-like peptide 1 receptor (Homo sapiens, UniProt P43220); assay: Agonist activity at human GLP-1R expressed in HEK293 cells assessed as stimulation of cAMP accumulation incubated for 20 mins in presence of 4.4% HSA; type: functional, cell-based
Sequence (P43220 whole entry): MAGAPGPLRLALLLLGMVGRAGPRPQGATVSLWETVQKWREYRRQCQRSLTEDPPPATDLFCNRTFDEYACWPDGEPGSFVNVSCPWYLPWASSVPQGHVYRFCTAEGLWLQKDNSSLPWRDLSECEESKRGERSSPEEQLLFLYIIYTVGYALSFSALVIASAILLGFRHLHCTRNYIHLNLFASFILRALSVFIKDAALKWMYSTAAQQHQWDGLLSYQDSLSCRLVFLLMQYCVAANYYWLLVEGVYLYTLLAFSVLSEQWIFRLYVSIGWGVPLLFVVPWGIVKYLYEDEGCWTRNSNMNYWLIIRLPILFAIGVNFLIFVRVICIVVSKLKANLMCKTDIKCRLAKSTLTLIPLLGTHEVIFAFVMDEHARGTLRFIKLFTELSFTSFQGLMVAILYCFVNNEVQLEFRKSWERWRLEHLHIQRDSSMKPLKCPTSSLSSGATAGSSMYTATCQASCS
*1 amine or outer side, *2 acyl side, *3 side chain or, on linkers, in order; H or OH if unused. Bridges are numbered along the chain shown (N, C = ends). [ ]: non-standard residue; d: D form. X2 = O=C(O)CCCCCCCCCCCCCCCCC(=O)NC(CCC(=O)NCCOCCOCC(=O)NCCCCCCNC(=O)C(CCCCNC(=O)CCN1C(=O)CC([*:2])C1=O)NC(=O)CCN1C(=O)CC([*:1])C1=O)C(=O)O; X3 = O=C(O)CCCCCCCCCCCCCCCCC(=O)NC(CCC(=O)NCCOCCOCC(=O)NCCCCCCNC(=O)C(CCCCNC(=O)CCN1C(=O)CC([*:1])C1=O)NC(=O)CCN1C(=O)CC([*:2])C1=O)C(=O)O; X7 = O=C(O)CCCCCCCCCCCCCCCCC(=O)NCCOCCOCC(=O)NCCCCCCNC(=O)C(CCCCNC(=O)CCN1C(=O)CC([*:1])C1=O)NC(=O)CCN1C(=O)CC([*:2])C1=O; X8 = O=C(O)CCCCCCCCCCCCCCCCC(=O)NCCOCCOCC(=O)NCCCCCCNC(=O)C(CCCCNC(=O)CCN1C(=O)CC([*:2])C1=O)NC(=O)CCN1C(=O)CC([*:1])C1=O; Aib = CC(C)(N)C(=O)O
RESULT TYPE: EC50 (nM)
Form entry: value (nM) — number only.

As a guide, the following entries are already answered.
- SUBSTANCE: "H-H[Aib]EGTYTNDVTEYLEEEAAKCFIEWLICGKPSSGAPPSKKKKKK-NH2 (linker 21-28 via X2)"
  UNIT DESCRIPTOR: "nM"
  EC50: 6.9
- SUBSTANCE: "H-H[Aib]EGTYTNDVTEYCEEEAAKCFIEWLIKGKPSSGAPPSKKKKKK-NH2 (linker 14-21 via X3)"
  UNIT DESCRIPTOR: "nM"
  EC50: 6.5
- SUBSTANCE: "H-H[Aib]EGTYTNDVTEYLEEEAAKCFIEWLICGKPSSGAPPSKKKKKK-NH2 (linker 21-28 via X8)"
  UNIT DESCRIPTOR: "nM"
  EC50: 1.5

Below: the item to evaluate.
Looking up H-H[Aib]EGTYTNDVTEYCEEEAAKCFIEWLIKGKPSSGAPPSKKKKKK-NH2 (linker 14-21 via X7) , I found its EC50 recorded as 1.4

###

EC50 for assorted substances
Target: Gastrin/cholecystokinin type B receptor (Homo sapiens)
Sequence (P32239 whole entry): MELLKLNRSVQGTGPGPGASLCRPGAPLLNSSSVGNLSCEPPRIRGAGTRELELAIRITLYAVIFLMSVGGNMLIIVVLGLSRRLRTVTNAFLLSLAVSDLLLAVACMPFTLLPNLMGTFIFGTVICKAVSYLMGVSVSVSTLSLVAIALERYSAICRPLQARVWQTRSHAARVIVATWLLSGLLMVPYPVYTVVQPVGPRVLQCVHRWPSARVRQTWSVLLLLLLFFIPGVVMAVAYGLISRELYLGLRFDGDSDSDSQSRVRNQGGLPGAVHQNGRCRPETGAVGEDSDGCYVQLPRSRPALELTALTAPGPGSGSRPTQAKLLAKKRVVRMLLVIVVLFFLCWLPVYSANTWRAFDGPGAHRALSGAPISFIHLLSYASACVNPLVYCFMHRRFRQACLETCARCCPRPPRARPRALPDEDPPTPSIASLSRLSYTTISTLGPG
Experiment: Agonist activity at human CCK-2R expressed in HEK293 cells assessed as stimulation of ERK phosphorylation incubated for 5 mins
Format: cell-based
*1 amine or outer side, *2 acyl side, *3 side chain or, on linkers, in order; H or OH if unused. Bridges are numbered along the chain shown (N, C = ends). [ ]: non-standard residue; d: D form. X1 = CCCCCCCCCCCCCCCC(=O)NCCCCCCNC(=O)C(CCCCNC(=O)CCN1C(=O)CC([*:1])C1=O)NC(=O)CCN1C(=O)CC([*:2])C1=O; sY = N[C@@H](Cc1ccc(OS(=O)(=O)O)cc1)C(=O)O; AEEA = NCCOCCOCC(=O)O; Aib = CC(C)(N)C(=O)O
Form entry: value (nM) — number only.

As a guide, the following entries are already answered.
- SUBSTANCE: "H-H[Aib]EGTYTNDVTEYCEEEAAKCFIEWLIKGKPSSGAPPPS[AEEA][AEEA]YGWLDF-NH2 (cysteines drawn unpaired)"
  REPORTED VALUE: 8.3
- SUBSTANCE: "H-H[Aib]EGTYTNDVTEYCEEEAAKCFIEWLIKGKPSSGAPPPS[AEEA][AEEA][sY]GWMDF-NH2 (cysteines drawn unpaired)"
  REPORTED VALUE: 7.6
- SUBSTANCE: "H-H[Aib]EGTYTNDVTEYLEEEAAKCFIEWLICGKPSSGAPPPS[AEEA][AEEA]YGWLDF-NH2 (cysteines drawn unpaired)"
  REPORTED VALUE: 9.4

Looking up H-H[Aib]EGTYTNDVTEYCEEEAAKCFIEWLIKGKPSSGAPPPS[AEEA][AEEA]YGWLDF-NH2 (linker 14-21 via X1) , I found its EC50 recorded as 7.3

Looking up H-H[Aib]EGTYTNDVTEYLEEEAAKCFIEWLICGKPSSGAPPPS[AEEA][AEEA][sY]GWMDF-NH2 (cysteines drawn unpaired) , I found its EC50 recorded as 8.2

Looking up H-H[Aib]EGTYTNDVTEYLEEEAAKCFIEWLICGKPSSGAPPPS[AEEA][AEEA]YGWLDF-NH2 (linker 21-28 via X1) , I found its EC50 recorded as 8.8

###

experiment: Tmax in ICR mouse at 50 nmol/kg, sc up to 24 hrs by LC-MS/MS analysis; format: ADME, organism-based; conditions: in vivo
*1 amine or outer side, *2 acyl side, *3 side chain or, on linkers, in order; H or OH if unused. Bridges are numbered along the chain shown (N, C = ends). [ ]: non-standard residue; d: D form. X1 = CCCCCCCCCCCCCCCC(=O)NCCCCCCNC(=O)C(CCCCNC(=O)CCN1C(=O)CC([*:1])C1=O)NC(=O)CCN1C(=O)CC([*:2])C1=O; AEEA = NCCOCCOCC(=O)O; Aib = CC(C)(N)C(=O)O
RESULT TYPE: Tmax (h)
Form entry: value (h) — number only.

- SUBSTANCE: "H-H[Aib]EGTYTNDVTEYCEEEAAKCFIEWLIKGKPSSGAPPPS[AEEA][AEEA]YGWLDF-NH2 (linker 14-21 via X1)"
  RESULT TYPE: "Tmax"
  UNIT DESCRIPTOR: "h"
  REPORTED VALUE: 4

Below: the item to evaluate.
Looking up H-H[Aib]EGTYTNDVTEYLEEEAAKCFIEWLICGKPSSGAPPPS[AEEA][AEEA]YGWLDF-NH2 (linker 21-28 via X1) , I found its Tmax recorded as 4

###

assay: Half life in ICR mouse at 50 nmol/kg, sc up to 24 hrs by LC-MS/MS analysis; type: ADME, organism-based; conditions: in vivo
*1 amine or outer side, *2 acyl side, *3 side chain or, on linkers, in order; H or OH if unused. Bridges are numbered along the chain shown (N, C = ends). [ ]: non-standard residue; d: D form. X1 = CCCCCCCCCCCCCCCC(=O)NCCCCCCNC(=O)C(CCCCNC(=O)CCN1C(=O)CC([*:1])C1=O)NC(=O)CCN1C(=O)CC([*:2])C1=O; AEEA = NCCOCCOCC(=O)O; Aib = CC(C)(N)C(=O)O
RESULT TYPE: half-life (h)
Form entry: value (h) — number only.

- SUBSTANCE: "H-H[Aib]EGTYTNDVTEYCEEEAAKCFIEWLIKGKPSSGAPPPS[AEEA][AEEA]YGWLDF-NH2 (linker 14-21 via X1)"
  REPORTED VALUE: 4.4

Below: the item to evaluate.
Looking up H-H[Aib]EGTYTNDVTEYLEEEAAKCFIEWLICGKPSSGAPPPS[AEEA][AEEA]YGWLDF-NH2 (linker 21-28 via X1) , I found its half-life recorded as 4.7

###

target: serum albumin (Homo sapiens, UniProt P02768); experiment: Binding affinity to human serum albumin in PBS pH 7.4 at 100 ug/mL incubated for 2 hrs by LC-MS/MS analysis relative to control; assay type: ADME; details: at 100 µg/mL, read-out: PB (converted)
Sequence (P02768 whole entry): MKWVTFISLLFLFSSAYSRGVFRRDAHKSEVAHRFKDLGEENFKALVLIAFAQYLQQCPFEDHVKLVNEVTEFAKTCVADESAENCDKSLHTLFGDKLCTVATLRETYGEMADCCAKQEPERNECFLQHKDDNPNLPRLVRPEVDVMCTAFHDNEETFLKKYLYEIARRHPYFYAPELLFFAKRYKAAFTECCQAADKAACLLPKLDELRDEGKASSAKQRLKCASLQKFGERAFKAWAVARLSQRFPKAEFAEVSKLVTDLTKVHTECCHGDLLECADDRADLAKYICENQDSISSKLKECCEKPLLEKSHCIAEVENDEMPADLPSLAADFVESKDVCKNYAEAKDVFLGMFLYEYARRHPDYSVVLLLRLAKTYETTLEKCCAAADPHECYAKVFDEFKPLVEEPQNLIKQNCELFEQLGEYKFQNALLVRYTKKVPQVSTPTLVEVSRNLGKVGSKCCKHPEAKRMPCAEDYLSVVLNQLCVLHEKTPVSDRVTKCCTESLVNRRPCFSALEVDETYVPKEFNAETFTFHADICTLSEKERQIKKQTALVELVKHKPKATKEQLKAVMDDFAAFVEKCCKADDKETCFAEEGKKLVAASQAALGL
*1 amine or outer side, *2 acyl side, *3 side chain or, on linkers, in order; H or OH if unused. Bridges are numbered along the chain shown (N, C = ends). [ ]: non-standard residue; d: D form. X5 = O=C(O)CCCCCCCCCCCCCCCCC(=O)NC(CCC(=O)NCCOCCOCC(=O)NCCOCCOCC(=O)NCCCCCCNC(=O)C(CCCCNC(=O)CCN1C(=O)CC([*:2])C1=O)NC(=O)CCN1C(=O)CC([*:1])C1=O)C(=O)O; Aib = CC(C)(N)C(=O)O
RESULT TYPE: fraction unbound at 2 h, 100 ug/mL
Enter a number only.

The recorded fraction unbound at 2 h, 100 ug/mL with serum albumin (Homo sapiens, UniProt P02768) for H-H[Aib]EGTYTNDVTEYLEEEAAKCFIEWLICGKPSSGAPPSKKKKKK-NH2 (linker 21-28 via X5) was 0.033
